I'd appreciate it if you could supply ED50 values for the items below.
# Test system: Rattus norvegicus
# assay.procedure: Antagonistic activity against fenfluramine induced hyperthermia in rat after peroral administration
# Format: functional
# condition.summary: po, read-out: ID50 (the source's name)
Output should be the measured figure followed by the unit it is expressed in.

Go through the list and state ED50 for each entry.
1. CCC(C)c1cc2ccccc2nc1SCCN(C)C.O=C(O)C(=O)O (centres undefined)
2. CN(C)CCSc1nc2ccccc2cc1-c1ccc(F)cc1.Cl
3. CN(C)CCSc1nc2ccccc2cc1C1CC1.O=C(O)C(=O)O
4. CN(C)CCSc1nc2ccccc2cc1-c1cccs1.O=C(O)C(=O)O
5. Cc1c(-c2ccccc2)c(SCCN(C)C)nc2ccccc12.O=C(O)C(=O)O
6. Cc1ccccc1-c1cc2ccccc2nc1SCCN(C)C.Cl
7. CN(C)CCSc1nc2ccccc2cc1-c1ccsc1.O=C(O)C(=O)O

## Result
1: 50 mg/kg; 2: 2.9 mg/kg; 3: 25 mg/kg; 4: 6.9 mg/kg; 5: 50 mg/kg; 6: 50 mg/kg; 7: 7.9 mg/kg

Go through the list and state ED50 for each entry.
1. Cl.NCCSc1nc2ccccc2cc1-c1ccccc1
2. CN(C)CCSc1nc2ccccc2cc1-c1ccccc1F.Cl
3. COc1ccc(OC)c(-c2cc3ccccc3nc2SCCN(C)C)c1.Cl
4. CNCCSc1nc2ccccc2cc1-c1ccccc1.Cl
5. COc1ccccc1-c1cc2cc(C)ccc2nc1SCCN(C)C.O=C(O)C(=O)O
6. CN(C)CCSc1nc2ccc(Br)cc2cc1-c1ccccc1.O=C(O)C(=O)O

## Result
4.8 mg/kg
7.2 mg/kg
4.2 mg/kg
7 mg/kg
50 mg/kg
6.7 mg/kg

## Task Item "COc1cccc(-c2cc3ccccc3nc2SCCN(C)C)c1.Cl" : provide ED50
## Result 5.1 mg/kg
